system: OVCAR-5 ovarian; assay: NCI-60 one-dose screen, 48 h; conditions: 10 µM unless noted
About 83,000 compounds went through this panel and 20% of them were active in at least one assay; those are over-represented in the sample as a whole. Activity calls are given as the source filed them. Rule for the calls: active = growth percent below 10; inactive = the rest.
Please reply with one of these outcomes: true (1) for active, false (0) for inactive

Take a look at these entries with their results.
N#C[S-].[Au+].c1ccc(CN2[CH-]N(Cc3ccccc3)C(c3ccccc3)=C2c2ccccc2)cc1 ... false (0)
COc1ccc(/C=C/c2cc(OC)c(OC)c(OC)c2)cc1NC(=O)/C=C/c1ccc(F)cc1 ... false (0)
CCCCOc1ccc(C(N)Cc2ccccc2)cc1 (stereo not drawn) ... false (0)

Enquiry: # outcome recorded in this test, key = C=CC[PH+](c1ccccc1)c1ccccc1.C=CC[PH+](c1ccccc1)c1ccccc1.[Cl][Pt][Cl]
Return: false (0)

Enquiry: # outcome recorded in this test, key = CC(=O)O[C@H](C[C@H](C(C)C)N(C)C(=O)[C@@H](NC(=O)[C@H]1CCCCN1C)C(C)C)c1nc(C(=O)N[C@@H](Cc2ccccc2)C[C@H](C)C(=O)O)c(CCOCc2ccccc2)s1
Return: false (0)

Enquiry: # outcome recorded in this test, key = CN1C(=O)C(=Cc2cn(Cc3ccccc3)c3ccccc23)C(=O)N(C)C1=O
Return: true (1)

###

test system: SF-295 CNS; assay: NCI-60 one-dose screen, 48 h (100 = growth as untreated, 0 = no growth, -100 = all killed); details: 10 µM unless noted
This is part of a sample that, as a whole, favours compounds with a hit. Of some 83,000 tested, about 20% had one in any assay.
Returns: string. Value is True if measured growth is below 90%, and False if it is greater than or equal to it.

COc1ccc(/C=C/c2cc(OC)c(OC)c(OC)c2)cc1NC(=O)/C=C/c1ccc(F)cc1 ... True
CCN1C(=O)C(=C/C=C/c2ccccc2)C(=O)N(CC)C1=O ... False
O=C(CC1(O)C(=O)Nc2ccccc21)c1ccc(C(=O)NCC2CCC3(CC2)OOC2(CCCCC2)OO3)cc1 (stereo not given) ... True
CCOC(=O)CCC(NC(=O)C(Cc1ccc(N(CCCl)CCCl)cc1)NC=O)C(=O)OCC (stereo not given) ... True

Now look at this entry.
Enquiry: Take the compound CC(=O)c1ccc(C(=O)NCC2CCC3(CC2)OOC2(CCCCC2)OO3)cc1 and say whether its growth is less than 90%.
Return: False

###

tested on: CAKI-1 renal; assay: NCI-60 one-dose screen, 48 h (100 = growth as untreated, 0 = no growth, -100 = all killed); conditions: 10 µM unless noted
Compounds without any hit were thinned out: in the full panel of roughly 83,000, 20% have a hit.
measureName: growth (%)
Answers are plain numbers, in %.

Answered examples (2):
CCCCCCCCCCCCCCCCCC1OC[C@H](COC(=O)O[C@@H](C(=O)O[C@H]2C[C@@]3(O)[C@@H](OC(=O)c4ccccc4)[C@@H]4[C@]5(OC(C)=O)CO[C@@H]5C[C@H](O)[C@@]4(C)C(=O)[C@H](OC(C)=O)C(=C2C)C3(C)C)[C@@H](NC(=O)c2ccccc2)c2ccccc2)O1 (stereo partly drawn) ... 81
CCCCCN(CCCCC)CC(O)c1cc(Cl)ccc1OC (stereo not drawn) ... 28.7

Enquiry: Name the recorded growth for O=C(Nc1ccc(Cl)cc1)Nc1nccs1 .
Return: 22.6
